All figures here come from patent US20220363718A1.

Attribute: CCL17 % Inhibition @ 10 µM, 400 pM TSLP
Target: TSLP (as used in the human PBMC assay) (UniProt Q969D9 29-159)
Test: cell-based or functional assay
*1 amine or outer side, *2 acyl side, *3 side chain or, on linkers, in order; H or OH if unused. Bridges are numbered along the chain shown (N, C = ends). Where no end group is shown, it is not given here. [ ]: non-standard residue; d: D form. The star is where a group is joined. X1 = N3CH2C(O)NH(CH2CH2O)3CH2CH2(CO), [N-]=[N+]=NCC(=O)NCCOCCOCCOCCC(=O)*; N3CH2C(O)NH(CH2CH2O)2CH2C(O) = [N-]=[N+]=NCC(=O)NCCOCCOCC(=O)*; TATA = O=C(CC[*:1])N1CN(C(=O)CC[*:2])CN(C(=O)CC[*:3])C1; Trp(1-Me) = Cn1cc(C[C@H](N)C(=O)O)c2ccccc21; Arg(Me2a) = CN(C)C(=N)NCCC[C@H](N)C(=O)O; Phe(4-F) = N[C@@H](Cc1ccc(F)cc1)C(=O)O; 1Nal = N[C@@H](Cc1cccc2ccccc12)C(=O)O; tBuAla = CC(C)(C)C[C@H](N)C(=O)O; NMeA = CN[C@@H](C)C(=O)O; Octanoyl = CCCCCCCC(=O)*
# unit: % | format: bare number

binder	endpoint_label	unit_descriptor	measured_value
Ac-C[NMeA][1Nal][tBuAla]QDC[Trp(1-Me)][Arg(Me2a)]G[Phe(4-F)]C[dA] (linker 1-7-12 via TATA; not fully specified (C-terminus)) [Example 29]	CCL17 % Inhibition @ 10 µM, 400 pM TSLP	%	62

Entry Octanoyl-C[NMeA][Trp(1-Me)][tBuAla]QDC[Trp(1-Me)][Arg(Me2a)]G[Phe(4-F)]C-NH2 (linker 1-7-12 via TATA; SMILES CCCCCCCC(=O)N[C@H]1CSCCC(=O)N2CN3CN(C2)C(=O)CCSC[C@H](NC(=O)[C@H](CC(=O)O)NC(=O)[C@H](CCC(N)=O)NC(=O)[C@H](CC(C)(C)C)NC(=O)[C@H](Cc2cn(C)c4ccccc24)NC(=O)[C@H](C)N(C)C1=O)C(=O)N[C@@H](Cc1cn(C)c2ccccc12)C(=O)N[C@@H](CCCNC(=N)N(C)C)C(=O)NCC(=O)N[C@@H](Cc1ccc(F)cc1)C(=O)N[C@H](C(N)=O)CSCCC3=O) [Example 15] : reported CCL17 % Inhibition @ 10 µM, 400 pM TSLP = ?
64

CCL17 % Inhibition @ 10 µM, 400 pM TSLP lookup needed for {N3CH2C(O)NH(CH2CH2O)2CH2C(O)}-C[NMeA][Trp(1-Me)][tBuAla]QDC[Trp(1-Me)][Arg(Me2a)]G[Phe(4-F)]C-NH2 (linker 1-7-12 via TATA; also: dimer: peptides clicked via N-terminal azido linker to N2,N6-dipent-4-ynoyl-L-lysine core (source also calls it trimeric), Claim 16 speaks of a dimeric or trimeric moiety) [Example 251] , thanks.
85

For the binder X1-C[NMeA][Trp(1-Me)][tBuAla]QDC[Trp(1-Me)][Arg(Me2a)]G[Phe(4-F)]C-NH2 (linker 1-7-12 via TATA; also: trimer: three peptides clicked via N-terminal azido linker to N-but-3-yn-1-yl-N2,N6-dipent-4-ynoyl-L-lysinamide core, Trimer of identical bicyclic peptides on a tri-alkyne lysinamide core (formula with F3, S9)) [Example 250] , what CCL17 % Inhibition @ 10 µM, 400 pM TSLP is on record?
59
